Where these numbers come from: paper PMC9785278

Endpoint Name: melting point

{"columns": ["Compound", "Endpoint Name", "Val"],
 "data": [
  ["Clc1ccc(-n2cc(-c3cc4c([nH]c5ccccc54)c(-c4ccccc4Cl)n3)nn2)cc1 [13f]", "melting point", "219.7 to 221.3 °C"],
  ["O=[N+]([O-])c1cccc(-c2nc(-c3cn(-c4ccc(Cl)cc4)nn3)cc3c2[nH]c2ccccc23)c1 [13e]", "melting point", "237.3 to 239.1 °C"],
  ["CN(C)c1ccc(-c2nc(-c3cn(-c4ccc(Cl)cc4)nn3)cc3c2[nH]c2ccccc23)cc1 [13d]", "melting point", "244.2 to 245.6 °C"],
  ["COc1ccc(-c2nc(-c3cn(-c4ccc(Cl)cc4)nn3)cc3c2[nH]c2ccccc23)cc1 [13c]", "melting point", "219.7 to 221.3 °C"],
  ["Fc1ccc(-c2nc(-c3cn(-c4ccc(Cl)cc4)nn3)cc3c2[nH]c2ccccc23)cc1 [13b]", "melting point", "237.3 to 238.1 °C"],
  ["Clc1ccc(-n2cc(-c3cc4c([nH]c5ccccc54)c(-c4ccccc4)n3)nn2)cc1 [13a]", "melting point", "207.5 to 207.9 °C"]
]}
